- System: ATP;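 further: ATP exposure 15 min at 22 °C before imaging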
- TEST DETAILS: switch fluorescence ratio, 500 uM ATP over buffer (Cy3 cluster intensity, sum of 5 cycles each) (fold (ratio)); higher = stronger signal-on switching upon ATP binding; sequences stand for … in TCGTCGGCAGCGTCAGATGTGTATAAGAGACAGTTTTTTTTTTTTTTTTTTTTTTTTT…TC
- MEASUREMENT CONTEXT: aptamer strand: ATP DNA aptamer (quencher-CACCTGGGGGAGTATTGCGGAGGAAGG + anchor), 100 nM annealed; ATP concentration: 500 uM
Rule: True for switch fluorescence ratio not less than 1, False for anything less.

These recorded examples may help you get a feel for the data.
{"CHAIN SEQUENCE": "ATACTACGGA", "DISCRETE LABEL": "True"}
{"CHAIN SEQUENCE": "CCGATTGTGT", "DISCRETE LABEL": "True"}
{"CHAIN SEQUENCE": "ACGAGGTTGG", "DISCRETE LABEL": "True"}
{"CHAIN SEQUENCE": "TTCACAGGAG", "DISCRETE LABEL": "True"}
{"CHAIN SEQUENCE": "ATAGCGCCG", "DISCRETE LABEL": "True"}

**Query** State whether the measured switch fluorescence ratio reaches 1, counting equality as reaching it, for `TTTTGATTGA`
**Result** True

**Query** Would you say `GGATGGAAGG` shows switch fluorescence ratio at minimum 1?
**Result** False

**Query** Item `AATTGATTAG` with switch fluorescence ratio of 1 or above?
**Result** True

**Query** State whether the measured switch fluorescence ratio reaches 1, counting equality as reaching it, for `ATATTCTTTT`
**Result** True

----------
- Test system: ATP;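 further: ATP exposure 15 min at 22 °C before imaging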
- TEST DETAILS: switch fluorescence ratio, 500 uM ATP over buffer (Cy3 cluster intensity, sum of 5 cycles each) (fold (ratio)); higher = stronger signal-on switching upon ATP binding; sequences stand for … in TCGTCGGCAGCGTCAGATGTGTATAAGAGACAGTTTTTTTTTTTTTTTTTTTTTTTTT…TC
- MEASUREMENT CONTEXT: aptamer strand: ATP DNA aptamer (quencher-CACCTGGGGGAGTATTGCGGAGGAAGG + anchor), 100 nM annealed; ATP concentration: 500 uM
MEASURED PARAMETER: switch fluorescence ratio
Answer with the value's number alone.

Below are worked cases with known answers.
{"CHAIN SEQUENCE": "GAAAATCAGC", "switch fluorescence ratio": 0.976}
{"CHAIN SEQUENCE": "AACTAGGAGG", "switch fluorescence ratio": 0.983}
{"CHAIN SEQUENCE": "AGAGATGAGA", "switch fluorescence ratio": 1.02}
{"CHAIN SEQUENCE": "GCAAGGAGCG", "switch fluorescence ratio": 1.03}

**Query** Need switch fluorescence ratio of `CTAAAGGTTC` , thanks.
**Result** 1.05

**Query** Quick one: switch fluorescence ratio of `TGGATGGCCC` ?
**Result** 1.02

----------
- System: ATP;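 further: ATP exposure 15 min at 22 °C before imaging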
- TEST DETAILS: switch fluorescence ratio, 500 uM ATP over buffer (Cy3 cluster intensity, sum of 5 cycles each) (fold (ratio)); higher = stronger signal-on switching upon ATP binding; sequences stand for … in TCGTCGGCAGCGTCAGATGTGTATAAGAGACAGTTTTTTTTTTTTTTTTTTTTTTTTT…TC
- MEASUREMENT CONTEXT: aptamer strand: ATP DNA aptamer (quencher-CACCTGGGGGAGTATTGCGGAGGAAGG + anchor), 100 nM annealed; ATP concentration: 500 uM
Label met when switch fluorescence ratio is at or above 1; anything below gets not met.

{"CHAIN SEQUENCE": "TTGTACTTAC", "TARGET SYSTEM": "ATP", "DISCRETE LABEL": "met"}
{"CHAIN SEQUENCE": "TAATTGCTCG", "TARGET SYSTEM": "ATP", "DISCRETE LABEL": "met"}
{"CHAIN SEQUENCE": "CTGGGTAGAC", "TARGET SYSTEM": "ATP", "DISCRETE LABEL": "met"}
{"CHAIN SEQUENCE": "TTTGTGTGCG", "TARGET SYSTEM": "ATP", "DISCRETE LABEL": "not met"}
{"CHAIN SEQUENCE": "TTTTGTGAGG", "TARGET SYSTEM": "ATP", "DISCRETE LABEL": "met"}

**Query** Dear colleague, could you confirm whether `GATTAACGCT` has switch fluorescence ratio at or above 1?
**Result** met

**Query** Answer whether switch fluorescence ratio of `ATATCCTCCC` is greater than or equal to 1.
**Result** met

**Query** Identify whether the reported switch fluorescence ratio of the following sequence is 1 or greater: `GGGAAAGAAC`
**Result** met

**Query** Entry `GACTTAGTGG` : is its switch fluorescence ratio no less than 1?
**Result** met

**Query** Decide: switch fluorescence ratio of `AGGGGATGAA` >= 1?
**Result** met

**Query** Threshold query (switch fluorescence ratio >= 1) on `TTTGTAAGGT`
**Result** met

----------
- System: ATP;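 further: ATP exposure 15 min at 22 °C before imaging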
- TEST DETAILS: switch fluorescence ratio, 500 uM ATP over buffer (Cy3 cluster intensity, sum of 5 cycles each) (fold (ratio)); higher = stronger signal-on switching upon ATP binding; sequences stand for … in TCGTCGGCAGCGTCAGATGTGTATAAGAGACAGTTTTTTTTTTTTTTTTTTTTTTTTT…TC
- MEASUREMENT CONTEXT: aptamer strand: ATP DNA aptamer (quencher-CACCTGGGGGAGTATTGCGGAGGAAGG + anchor), 100 nM annealed; ATP concentration: 500 uM
MEASURED PARAMETER: switch fluorescence ratio
Output spec: single numeric token, no unit.

Consider the reported switch fluorescence ratio for these sequences:
{"CHAIN SEQUENCE": "GGTTTCGACG", "VALUE MEASURED": 1.01}
{"CHAIN SEQUENCE": "GAAGGGCTAG", "VALUE MEASURED": 0.999}

**Query** Entry `ACGGGTATGG` has what switch fluorescence ratio?
**Result** 1.01

**Query** Would you kindly share the measured switch fluorescence ratio for `AGAGTCATTA` ?
**Result** 0.995

**Query** // query switch fluorescence ratio value for entry `ATTATATTCT`
**Result** 1

**Query** Which switch fluorescence ratio value belongs to `GACGGTTATT` ?
**Result** 1

**Query** Item under review: `GTTTTGATCA` . Reported switch fluorescence ratio?
**Result** 1

**Query** If you can, please state the reported switch fluorescence ratio value of `TGTTATTGGG` .
**Result** 0.987

**Query** For `ATTTTACACC` , what is its reported switch fluorescence ratio?
**Result** 1.07

**Query** Quick check: switch fluorescence ratio of `AGGGCAACTG` ?
**Result** 1.07

**Query** If you can, please state the reported switch fluorescence ratio value of `CGGTGGAATC` .
**Result** 1.36

**Query** What does the record list as switch fluorescence ratio for `GAGCTAGGGG` ?
**Result** 1.03

**Query** // lookup switch fluorescence ratio for `GGGAGAGGTG`
**Result** 0.989

**Query** I would be grateful if you could share the reported switch fluorescence ratio for `ATGGGGCATC` .
**Result** 0.991

**Query** Would you mind telling me what switch fluorescence ratio value was observed for `TTAGTTATAG` ?
**Result** 1

**Query** What value of switch fluorescence ratio has been reported for the following sequence? `CGTCGTGGAG`
**Result** 1.01

**Query** Suppose we examine the sequence `TTACCGGGAG` ; what switch fluorescence ratio value has been reported?
**Result** 1.05

**Query** Look up switch fluorescence ratio for this sequence: `TTTGTCAAAC`
**Result** 1.11

**Query** Which value of switch fluorescence ratio has been reported for `AGAGGGTTTG` in the records?
**Result** 0.998

**Query** For the sequence `CTGTTTGCCT` , what switch fluorescence ratio is on record?
**Result** 0.983

----------
- Test system: ATP;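 further: ATP exposure 15 min at 22 °C before imaging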
- TEST DETAILS: switch fluorescence ratio, 500 uM ATP over buffer (Cy3 cluster intensity, sum of 5 cycles each) (fold (ratio)); higher = stronger signal-on switching upon ATP binding; sequences stand for … in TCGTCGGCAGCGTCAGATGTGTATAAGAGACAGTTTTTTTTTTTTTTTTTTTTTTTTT…TC
- MEASUREMENT CONTEXT: aptamer strand: ATP DNA aptamer (quencher-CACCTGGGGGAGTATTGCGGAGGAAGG + anchor), 100 nM annealed; ATP concentration: 500 uM
MEASURED PARAMETER: switch fluorescence ratio
Answer using only a numeral; do not append any unit.

Some solved cases for reference:
{"CHAIN SEQUENCE": "GGGAATACGT", "MEASURED PARAMETER": "switch fluorescence ratio", "VALUE MEASURED": 1.03}
{"CHAIN SEQUENCE": "TTGTGTGTAA", "MEASURED PARAMETER": "switch fluorescence ratio", "VALUE MEASURED": 0.995}
{"CHAIN SEQUENCE": "TTTGGGGCGC", "MEASURED PARAMETER": "switch fluorescence ratio", "VALUE MEASURED": 1.01}

**Query** switch fluorescence ratio for `CAGGGAGTAG` ?
**Result** 1.01

**Query** Suppose we examine the sequence `GCCTCCTTTT` ; what switch fluorescence ratio value has been reported?
**Result** 1.05

**Query** Please give the measured switch fluorescence ratio for this sequence: `TTTTCTGGAA`
**Result** 1.01

**Query** Entry under review: `AGACGCGGTG` . Reported switch fluorescence ratio?
**Result** 1.04

**Query** Param item = `GATCTGAAGT` ; retrieve measured switch fluorescence ratio.
**Result** 1.02

**Query** Endpoint output: switch fluorescence ratio of `TGCAGGTTGG` . Value?
**Result** 1.03

**Query** Please give the measured switch fluorescence ratio for this sequence: `ACGATGATGT`
**Result** 1.03

**Query** Find the recorded switch fluorescence ratio belonging to `GTTTTTTCTT` and report it.
**Result** 0.971

**Query** Which switch fluorescence ratio reading was recorded for the sequence `GTATAAGGGT` ?
**Result** 1.01

**Query** Consider the sequence `TTATCAATGG` and give its measured switch fluorescence ratio.
**Result** 1.01

**Query** What measured switch fluorescence ratio goes with `CTAATGGGGA` ?
**Result** 0.981

**Query** What does the data say about its switch fluorescence ratio? Entry: `ATGCTTAGGG`
**Result** 0.944

**Query** Any idea what its switch fluorescence ratio is? The sequence is `GTGGGGGGTG`
**Result** 1.02

**Query** Which switch fluorescence ratio is reported for this sequence? `GGGTGACAGG`
**Result** 0.978

**Query** What does the data say about its switch fluorescence ratio? Entry: `TGCGCAACTT`
**Result** 1.03

**Query** What measured switch fluorescence ratio goes with `CGGGATATAA` ?
**Result** 0.989

**Query** # input sequence: `GAATGGGGGG` ; wanted: its switch fluorescence ratio
**Result** 1.01

**Query** Consider the sequence shown here: `GGTTTCCCTG` What is its recorded switch fluorescence ratio?
**Result** 0.998
